# key: entry, value: Solubility
- test_name: Solubility in PBS
- Assay type: physicochemical
- Description: After ultracentrifugation of the PBS solution, the supernatant was analyzed by HPLC and compared to an HPLC injection 50 μM peptide DMSO solution. Solubility was determined by: [(Area of PBS peak)/(Area of DMSO peak)]*50 uM.
Give just the number in µM; leave the unit off.

molecule	Solubility / µM
CC(=O)N1CCC[C@]12CC=CCCCC1(CCCC=CCCCOC(=O)N3CC[C@@](C(=O)N[C@@H](Cc4ccsc4)C(=O)N[C@@H](Cc4ccc5ccccc5c4)C(=O)N[C@@H](Cc4c[nH]cn4)C(N)=O)(C3)NC(=O)[C@H](CC(N)=O)NC(=O)[C@H](Cc3ccccc3)NC(=O)[C@H](C)NC(=O)[C@H](C)NC(=O)[C@H](CC(=O)O)NC(=O)[C@H](CC(=O)O)NC1=O)NC(=O)[C@H](CC(C)(C)C)NC(=O)[C@H](CC(=O)O)NC2=O (some centres unmarked)	50

Shifting focus to the molecule that follows.
Ask: Entry CC[C@H](C)[C@@H]1NC(=O)[C@H](CC(=O)O)NC(=O)[C@]2(CC=CCCCC3(CCCC=CCCCCCC[C@@](C)(C(=O)N[C@@H](Cc4ccccc4)C(=O)N[C@@H](Cc4csc5ccccc45)C(=O)N[C@@H](CCC(N)=O)C(N)=O)NC(=O)[C@H](CCC(N)=O)NC(=O)[C@H](Cc4ccccc4)NC(=O)[C@H](C)NC(=O)[C@H](C)NC(=O)[C@H](CCC(=O)O)NC(=O)[C@H](CC(=O)O)NC3=O)NC1=O)CCCN2C(=O)Cc1ccccc1 (some centres unmarked) [I-601] needs its Solubility filled in; supply it.
Reply: 43
